- Tested on: A549/ATCC NSCLC
- MEASUREMENT DESCRIPTION: NCI-60 one-dose screen, 48 h (100 = growth as untreated, 0 = no growth, -100 = all killed)
- CONDITION LABEL: 10 µM unless noted
About 83,000 compounds went through this panel and 20% of them were active in at least one assay; those are over-represented in the sample as a whole.
Known growth of a selection of compounds
# unit: % | format: bare number

Observe how each entry below is paired with its result.
>>> df
                                   compound        tested_on  observed_measurement
0  CC(=O)OCC1O[C@@H]([S-])C(OC(C)=O)[C@H](OC(C)=O)[C@@H]1OC(C)=O.[Au+].c1ccc(CN2[CH-]N(Cc3ccccc3)C(c3ccccc3)=C2c2ccccc2)cc1  A549/ATCC NSCLC                  76.3
1  CCOP1(=O)CC(C)=C(Cl)C(P(=O)(OCC)OCC)C1 (stereo not given)  A549/ATCC NSCLC                  90.4

Prompt: Form field: reported growth of `CCCc1cc(O)c2c3c(c(=O)oc2c1)CN(C)CC3`
Completion: 29.1

Prompt: Form field: reported growth of `COC(=O)[C@@H](C)C[C@H](Cc1ccccc1)NC(=O)c1csc([C@@H](C[C@H](C(C)C)N(C)C(=O)[C@@H](NC(=O)[C@H]2CCCCN2C)C2CCCCC2)OC(C)=O)n1`
Completion: 11.4

Prompt: Form field: reported growth of `Clc1cc(N2CC2)nc(N2CC2)n1`
Completion: 62.3

* * *

Known growth of a selection of compounds
- Tested on: U251 CNS
- MEASUREMENT DESCRIPTION: NCI-60 one-dose screen, 48 h (100 = growth as untreated, 0 = no growth, -100 = all killed)
- CONDITION LABEL: 10 µM unless noted
The panel holds about 83,000 compounds, 20% with a hit somewhere; the sample as a whole holds those more often.
# unit: % | format: bare number

Observe how each entry below is paired with its result.
COMPOUND	TESTED ON	UNITS TEXT	growth
COc1ccc(C(=O)c2cc(OC)c(OC)c(OC)c2)cc1OC(C)=O	U251 CNS	%	6.47
Cc1ccc(Nc2nc3c(s2)C2=CC[C@@H]4[C@H](CC[C@]5(C)C(=O)CC[C@@H]45)[C@@]2(C)CC3)cc1	U251 CNS	%	33.4
Clc1cc(N2CC2)nc(N2CC2)n1	U251 CNS	%	67.9

Prompt: Form field: reported growth of `COC(=O)[C@@H](C)C[C@H](Cc1ccccc1)NC(=O)c1csc([C@@H](C[C@H](C(C)C)N(C)C(=O)[C@@H](NC(=O)[C@H]2CCCN2C)C2CC2)OC(C)=O)n1`
Completion: 8.67

Prompt: Form field: reported growth of CC(C)(C)C(=O)OCOP(=O)(OCOC(=O)C(C)(C)C)C1CCCN(O)C1=O (stereo not drawn)
Completion: 2.06

Prompt: Form field: reported growth of `O=C(c1ccccc1O)c1[nH]c(Cl)c(Cl)c1-n1c(C(=O)c2ccccc2O)cc(Cl)c1Cl`
Completion: -11.8

Prompt: Form field: reported growth of `Clc1cccc(NCOOC2(OOCNc3cccc(Cl)c3)CCCCCC2)c1`
Completion: 101
